Below is a list of entries, each paired with its recorded EC50 value.
assay.target: CFTR (Homo sapiens, UniProt P13569, DEL508-508)
Construct: endogenous in cells; host or cells: primary human bronchial epithelial cells from CF subjects (F508del/MF-HBE), differentiated at air-liquid interface
Sequence (P13569 with tags, fused parts or gaps DEL508-508): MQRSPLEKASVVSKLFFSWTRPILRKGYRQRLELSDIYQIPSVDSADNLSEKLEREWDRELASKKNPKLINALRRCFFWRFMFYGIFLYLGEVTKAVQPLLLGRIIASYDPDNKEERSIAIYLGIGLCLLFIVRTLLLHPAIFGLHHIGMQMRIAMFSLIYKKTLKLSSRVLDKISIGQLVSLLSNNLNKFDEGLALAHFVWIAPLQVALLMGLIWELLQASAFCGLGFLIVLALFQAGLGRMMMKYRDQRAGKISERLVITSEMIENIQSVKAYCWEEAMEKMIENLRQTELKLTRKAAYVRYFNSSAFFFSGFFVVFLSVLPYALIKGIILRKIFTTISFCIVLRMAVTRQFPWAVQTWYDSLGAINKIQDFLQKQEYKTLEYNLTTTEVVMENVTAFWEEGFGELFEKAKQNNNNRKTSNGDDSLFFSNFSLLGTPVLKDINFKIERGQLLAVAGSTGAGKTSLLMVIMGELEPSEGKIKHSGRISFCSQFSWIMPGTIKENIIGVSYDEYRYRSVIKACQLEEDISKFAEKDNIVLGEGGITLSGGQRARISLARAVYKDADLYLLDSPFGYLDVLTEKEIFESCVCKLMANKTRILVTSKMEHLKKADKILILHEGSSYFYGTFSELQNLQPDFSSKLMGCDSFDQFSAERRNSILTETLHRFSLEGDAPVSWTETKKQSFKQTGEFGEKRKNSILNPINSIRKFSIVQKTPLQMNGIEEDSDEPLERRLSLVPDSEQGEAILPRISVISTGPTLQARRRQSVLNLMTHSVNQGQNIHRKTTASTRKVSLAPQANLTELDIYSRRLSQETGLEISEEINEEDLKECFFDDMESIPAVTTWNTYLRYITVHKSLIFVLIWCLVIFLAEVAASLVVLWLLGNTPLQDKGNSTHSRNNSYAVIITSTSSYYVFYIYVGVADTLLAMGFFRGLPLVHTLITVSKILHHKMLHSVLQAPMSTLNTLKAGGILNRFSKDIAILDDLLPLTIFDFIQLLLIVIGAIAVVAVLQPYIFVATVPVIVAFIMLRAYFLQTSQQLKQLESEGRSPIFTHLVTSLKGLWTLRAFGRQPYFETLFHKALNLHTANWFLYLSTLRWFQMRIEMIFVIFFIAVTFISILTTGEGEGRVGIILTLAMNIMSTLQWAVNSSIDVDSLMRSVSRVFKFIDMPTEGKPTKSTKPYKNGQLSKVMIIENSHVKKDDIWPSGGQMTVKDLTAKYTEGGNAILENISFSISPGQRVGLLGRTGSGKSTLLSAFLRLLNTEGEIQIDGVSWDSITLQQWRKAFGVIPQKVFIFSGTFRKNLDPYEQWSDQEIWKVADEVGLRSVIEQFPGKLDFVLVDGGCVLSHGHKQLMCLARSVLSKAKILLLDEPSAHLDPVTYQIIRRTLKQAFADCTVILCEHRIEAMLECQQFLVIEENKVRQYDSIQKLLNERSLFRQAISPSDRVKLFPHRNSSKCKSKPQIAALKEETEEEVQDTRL
experimental.details: HBE assay: Ussing chamber assay of CFTR-mediated short-circuit currents
Type: cell-based
condition: Table 11; read-out: HBE EC50
assay.readout: EC50

1. Cc1cccc(C)c1-c1cc2nc(n1)NS(=O)(=O)c1cccc(c1)C(=O)N(CCc1ccc(C3CCCCC3)cn1)[C@H](CC(C)(C)C)CO2 :: < 1 µM
2. Cc1cncc(CN2C(=O)c3cccc(c3)S(=O)(=O)Nc3nc(cc(-c4c(C)cccc4C)n3)OC[C@H]2CC(C)(C)C)n1 :: < 1 µM
3. C=C(C)c1cccc(CN2C(=O)c3cccc(c3)S(=O)(=O)Nc3nc(cc(-c4c(C)cccc4C)n3)OC[C@H]2CC(C)(C)C)n1 :: < 1 µM
4. Cc1cccc(C)c1-c1cc2nc(n1)NS(=O)(=O)c1cccc(c1)C(=O)N(Cc1ncc(OC(C)C)c(C)n1)[C@H](CC(C)(C)C)CO2 :: < 1 µM
5. Cc1cccc(C)c1-c1cc2nc(n1)NS(=O)(=O)c1cccc(c1)C(=O)N(Cc1ncc(N3CCC(C)(C)CC3)cn1)[C@H](CC(C)C)CO2 :: 3 to 30 µM
6. Cc1cccc(C)c1-c1cc2nc(n1)NS(=O)(=O)c1cccc(c1)C(=O)N(Cc1cccc(C3=CCOCC3)n1)[C@H](CC(C)(C)C)CO2 :: < 1 µM
7. Cc1cccc(C)c1-c1cc2nc(n1)NS(=O)(=O)c1cccc(c1)C(=O)N(CC1CCC(C)(C)CO1)[C@H](CC(C)(C)C)CO2 (single isomer, unassigned) [Compound 23] :: < 1 µM
8. Cc1cccc(C)c1-c1cc2nc(n1)NS(=O)(=O)c1cccc(c1)C(=O)N(Cc1nccc(N3CCC(C)(C)CC3)n1)[C@H](CC(C)(C)C)CO2 :: < 1 µM
9. Cc1cccc(C)c1-c1cc2nc(n1)NS(=O)(=O)c1cccc(c1)C(=O)N(Cc1ncc(N3CC4CC4C3)cn1)[C@H](CC(C)(C)C)CO2 (stereo partly drawn) :: 1 to 3 µM
10. Cc1cccc(C)c1-c1cc2nc(n1)NS(=O)(=O)c1cccc(c1)C(=O)N(Cc1ncc(OC(C)C)cn1)[C@H](CC(C)(C)C)CO2 :: < 1 µM
11. Cc1cccc(C)c1-c1cc2nc(n1)NS(=O)(=O)c1cccc(c1)C(=O)N(Cc1nccc(C(F)(F)F)n1)[C@H](CC(C)(C)C)CO2 :: < 1 µM
12. Cc1cccc(C)c1-c1cc2nc(n1)NS(=O)(=O)c1cccc(c1)C(=O)N(Cc1cnc(N3CCC(C)(C)C3)cn1)[C@H](CC(C)(C)C)CO2 :: < 1 µM

---

assay.target: UniProt P13569
experimental.details: Membrane potential dye, Enteroid Assay B
Format: cell-based
condition: Table 8; chloride transport as % of triple combination control (Enteroid Assay B)
assay.readout: Ent. B Max Activity

1. CCOC(=O)CCCCN1C(=O)c2cc(nn2C)S(=O)(=O)Nc2nc(cc(-c3c(C)cccc3C)n2)OC[C@H]1CC(C)(C)C :: ++ (++ is 30-60%)
2. Cc1cccc(C)c1-c1cc2nc(n1)NS(=O)(=O)c1cccc(c1)C(=O)N(Cc1ccccn1)[C@H](CC(C)(C)C)CO2 :: +++ (+++ is >60%)
3. Cc1cccc(C)c1-c1cc2nc(n1)NS(=O)(=O)c1cccc(c1)C(=O)N(CC1CC(C)(O)C1)[C@H](CC(C)(C)C)CO2 (stereo partly drawn) [Compound 664] :: +++ (+++ is >60%)
4. Cc1cccc(C)c1-c1cc2nc(n1)NS(=O)(=O)c1cc(nn1C)C(=O)N(Cc1ncccn1)[C@H](CC(C)(C)C)CO2 :: ++ (++ is 30-60%)
5. Cc1cccc(C)c1-c1cc2nc(n1)NS(=O)(=O)c1cccc(c1)C(=O)N(Cc1cccnn1)[C@H](CC(C)(C)C)CO2 :: +++ (+++ is >60%)
6. Cc1cccc(C)c1-c1cc2nc(n1)NS(=O)(=O)c1cccc(c1)C(=O)N(CCc1ccc(C(N)=O)cc1)[C@H](CC(C)(C)C)CO2 :: ++ (++ is 30-60%)
